targetEntity: Monoglyceride lipase (Homo sapiens) (UniProt Q99685)
assayOverview: Inhibition of human recombinant MGL using 2-oleoylglycerol at 1 uM by competitive hydrolysis assay
Would you mind telling me the reported inhibition of each entry?

Query block: Check the records and state inhibition for CC(=O)O[C@@H]1[C@@H]([C@@H](C)OC(=O)CCCc2ccccc2)C(=O)N1C(=O)CCc1ccccc1
Result block: 0%

Query block: State, in one line, measured inhibition of C[C@@H](OC(=O)CCCc1ccccc1)[C@@H]1CN(C(=O)CCCc2ccccc2)C1=O
Result block: 0%

Query block: Output measured inhibition for this item: CC(=O)O[C@@H]1[C@@H]([C@@H](C)OC(=O)CCCc2ccccc2)C(=O)N1C(=O)CCCc1ccccc1
Result block: 0%

Query block: Kindly indicate its recorded inhibition. Item: CC(=O)O[C@@H]1[C@@H]([C@@H](C)OC(=O)CCc2ccccc2)C(=O)N1C(=O)CCc1ccccc1
Result block: 0%

Query block: Name the recorded inhibition of the item C[C@@H](OC(=O)CCCc1ccccc1)[C@@H]1CN(C(=O)CCc2ccccc2)C1=O in your answer.
Result block: 0%

Query block: Please list inhibition recorded for the compound C=CCCC(=O)N1C[C@@H]([C@@H](C)O)C1=O
Result block: 8%

Query block: Kindly indicate its recorded inhibition. Item: CC(=O)O[C@@H]1[C@@H]([C@@H](C)OC(=O)CCc2ccccc2)C(=O)N1C(=O)CCCc1ccccc1
Result block: 0%

###

targetEntity: Monoglyceride lipase (Homo sapiens)
assayOverview: Inhibition of human recombinant MGL using 2-oleoylglycerol by competitive hydrolysis assay
property: pIC50
Reminder that pIC50 means the negative base-10 logarithm of the concentration expressed in mol/L.

Query block: Fill: pIC50 (Monoglyceride lipase (Homo sapiens)) for this molecule C=CCCCC(=O)O[C@H](C)[C@@H]1CN(C(=O)CCC=C)C1=O
Result block: 5.33

###

targetEntity: Monoglyceride lipase (Homo sapiens) (UniProt Q99685)
Sequence (whole entry): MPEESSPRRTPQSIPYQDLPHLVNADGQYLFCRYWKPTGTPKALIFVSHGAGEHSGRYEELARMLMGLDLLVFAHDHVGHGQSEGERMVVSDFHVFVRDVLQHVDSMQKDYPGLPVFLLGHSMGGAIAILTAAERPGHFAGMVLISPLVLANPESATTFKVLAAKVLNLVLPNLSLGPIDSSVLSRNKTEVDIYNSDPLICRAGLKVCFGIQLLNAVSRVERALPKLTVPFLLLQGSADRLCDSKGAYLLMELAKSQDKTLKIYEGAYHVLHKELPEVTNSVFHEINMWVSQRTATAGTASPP
assayOverview: Inhibition of human recombinant MGL using 2-oleoylglycerol at 100 uM by competitive hydrolysis assay
For each of the molecules below, state its inhibition.
The figure you give is taken to be in %; do not add the unit.

Query block: State the measured inhibition (Monoglyceride lipase (Homo sapiens) (UniProt Q99685)) of C=CCCCC(=O)N1C[C@@H]([C@@H](C)OC(=O)Cc2ccc(-c3ccccc3)cc2)C1=O
Result block: 67

Query block: Find inhibition for CC(=O)O[C@@H]1[C@@H]([C@@H](C)OC(=O)CCc2ccccc2)C(=O)N1C(=O)CCCc1ccccc1 on Monoglyceride lipase (Homo sapiens) (UniProt Q99685) and write it down.
Result block: 100

Query block: Please indicate recorded inhibition of C=CCCC(=O)N1C(=O)[C@H]([C@@H](C)O)[C@H]1OC(C)=O measured with Monoglyceride lipase (Homo sapiens) (UniProt Q99685).
Result block: 16

Query block: Report inhibition from Monoglyceride lipase (Homo sapiens) (UniProt Q99685) testing of CC(=O)O[C@@H]1[C@@H]([C@@H](C)OC(=O)CCc2ccccc2)C(=O)N1C(=O)CCc1ccccc1
Result block: 100

Query block: Report value only: inhibition, Monoglyceride lipase (Homo sapiens) (UniProt Q99685), CC(=O)O[C@@H]1[C@@H]([C@@H](C)OC(=O)CCCc2ccccc2)C(=O)N1C(=O)CCc1ccccc1
Result block: 100

Query block: Consider the molecule C[C@@H](OC(=O)CCc1ccccc1)[C@@H]1CN(C(=O)CCc2ccccc2)C1=O tested on Monoglyceride lipase (Homo sapiens) (UniProt Q99685); state its inhibition.
Result block: 100

Query block: Jot down inhibition (Monoglyceride lipase (Homo sapiens) (UniProt Q99685)) of CC(=O)O[C@@H]1[C@@H]([C@@H](C)O)C(=O)N1C(=O)CCCc1ccccc1 .
Result block: 61

Query block: Return reported inhibition for target or system Monoglyceride lipase (Homo sapiens) (UniProt Q99685), item C[C@@H](OC(=O)Cc1ccc(-c2ccccc2)cc1)[C@@H]1CNC1=O .
Result block: 16

###

targetEntity: Fatty-acid amide hydrolase 1 (Homo sapiens)
Sequence (O00519 whole entry): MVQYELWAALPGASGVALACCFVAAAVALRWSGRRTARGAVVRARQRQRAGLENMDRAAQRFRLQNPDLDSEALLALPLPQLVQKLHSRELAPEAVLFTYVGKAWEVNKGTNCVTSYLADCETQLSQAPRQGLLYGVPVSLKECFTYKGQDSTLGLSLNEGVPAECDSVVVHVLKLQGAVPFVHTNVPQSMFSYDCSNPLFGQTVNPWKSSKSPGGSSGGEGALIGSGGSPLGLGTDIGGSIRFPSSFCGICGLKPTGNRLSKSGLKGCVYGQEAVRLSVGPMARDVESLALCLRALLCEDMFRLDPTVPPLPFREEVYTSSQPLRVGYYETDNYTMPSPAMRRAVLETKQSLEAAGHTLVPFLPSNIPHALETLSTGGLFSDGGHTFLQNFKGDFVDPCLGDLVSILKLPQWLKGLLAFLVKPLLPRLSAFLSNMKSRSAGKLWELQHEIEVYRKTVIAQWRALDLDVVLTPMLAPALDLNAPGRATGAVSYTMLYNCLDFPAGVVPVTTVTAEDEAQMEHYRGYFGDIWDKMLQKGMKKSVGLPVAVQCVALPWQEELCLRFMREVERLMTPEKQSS
assayOverview: Inhibition of human recombinant FAAH using [3H]anandamide by competitive hydrolysis assay
property: pIC50
Lab note — pIC50 values are minus log10 of concentrations in M.

Query block: Name the value of pIC50 reported for CC(=O)O[C@@H]1[C@@H]([C@@H](C)OC(=O)CCCc2ccccc2)C(=O)N1C(=O)CCCc1ccccc1 when tested on Fatty-acid amide hydrolase 1 (Homo sapiens).
Result block: 5.51

Query block: Determine reported pIC50 for C[C@@H](OC(=O)Cc1ccc(-c2ccccc2)cc1)[C@@H]1CN(C(=O)CCc2ccccc2)C1=O ; test system: Fatty-acid amide hydrolase 1 (Homo sapiens).
Result block: 7.30

Query block: Lab note: record pIC50 of CC(=O)O[C@@H]1[C@@H]([C@@H](C)O)C(=O)N1C(=O)CCCc1ccccc1 tested on Fatty-acid amide hydrolase 1 (Homo sapiens).
Result block: 3.74

Query block: Jot down pIC50 (Fatty-acid amide hydrolase 1 (Homo sapiens)) of C[C@@H](O)[C@@H]1CN(C(=O)CCc2ccccc2)C1=O .
Result block: 3.39

Query block: Fetch value of pIC50 on Fatty-acid amide hydrolase 1 (Homo sapiens) for C[C@@H](OC(=O)Cc1ccc(-c2ccccc2)cc1)[C@@H]1CN(C(=O)CCCc2ccccc2)C1=O .
Result block: 7.49

Query block: Answer briefly: pIC50 recorded on Fatty-acid amide hydrolase 1 (Homo sapiens) for CC(=O)O[C@@H]1[C@@H]([C@@H](C)O)C(=O)N1C(=O)CCc1ccccc1
Result block: 3.65

Query block: State the measured pIC50 (Fatty-acid amide hydrolase 1 (Homo sapiens)) of C=CCCCC(=O)N1C[C@@H]([C@@H](C)OC(=O)CCCc2ccccc2)C1=O
Result block: 8.00

Query block: State the measured pIC50 (Fatty-acid amide hydrolase 1 (Homo sapiens)) of C[C@@H](OC(=O)CCCc1ccccc1)[C@@H]1CN(C(=O)CCc2ccccc2)C1=O
Result block: 7.31

Query block: State the measured pIC50 (Fatty-acid amide hydrolase 1 (Homo sapiens)) of C[C@@H](OC(=O)CCc1ccccc1)[C@@H]1CN(C(=O)CCc2ccccc2)C1=O
Result block: 6.80

Query block: Under Fatty-acid amide hydrolase 1 (Homo sapiens): report pIC50 of C[C@@H](OC(=O)CCCc1ccccc1)[C@@H]1CN(C(=O)CCCc2ccccc2)C1=O .
Result block: 7.52

Query block: Enter recorded pIC50 with Fatty-acid amide hydrolase 1 (Homo sapiens) for C=CCCC(=O)N1C[C@@H]([C@@H](C)OC(=O)Cc2ccc(-c3ccccc3)cc2)C1=O here.
Result block: 7.92

Query block: Give pIC50 for this entry on Fatty-acid amide hydrolase 1 (Homo sapiens): C[C@@H](OC(=O)CCc1ccccc1)[C@@H]1CN(C(=O)CCCc2ccccc2)C1=O
Result block: 7.24

Query block: Write down measured pIC50 (Fatty-acid amide hydrolase 1 (Homo sapiens)) for this compound. C=CCCCC(=O)N1C[C@@H]([C@@H](C)OC(=O)Cc2ccc(-c3ccccc3)cc2)C1=O
Result block: 7.85

Query block: Recall the reported pIC50 of C=CCCC(=O)O[C@H](C)[C@@H]1CN(C(=O)CCC=C)C1=O when tested on Fatty-acid amide hydrolase 1 (Homo sapiens).
Result block: 7.01

Query block: Specify pIC50 for C[C@@H](OC(=O)CCCc1ccccc1)[C@@H]1CN(C(=O)CCCCc2ccccc2)C1=O , system Fatty-acid amide hydrolase 1 (Homo sapiens).
Result block: 6.35
